Tested on: Human mast cells (CHMC)
protocol_description: LD Tryptase release assay in CHMC (mast cell activation induced by FcγR cross-linking)
Type: cell-based
measurement_context: Homo sapiens, Mast cell, anti-IgG stimulation, activity of tryptase released upon degranulation

molecule | IC50
CN(C[C@H]1CCCO1)c1ccc(Nc2ncc(F)c(Nc3ccc4c(n3)NC(=O)C(C)(C)O4)n2)cn1 | 100 to 500 nM
COc1cc(Nc2ncc(F)c(Nc3ccc4c(n3)NC(=O)CO4)n2)ccc1C1CCOCC1 | < 100 nM
C[C@H]1CN(c2ccc(Nc3ncc(F)c(Nc4ccc5c(n4)NC(=O)CO5)n3)cc2)CCO1 | < 100 nM
CC1(C)Oc2ccc(Nc3nc(Nc4ccc(-c5cccnc5)nc4)ncc3F)nc2NC1=O | 1000 to 100000 nM
CC1(C)Oc2ccc(Nc3nc(Nc4ccc(N5CCOC5=O)cc4)ncc3F)nc2NC1=O | < 100 nM
COc1cc(Nc2ncc(F)c(Nc3ccc4c(n3)NC(=O)CO4)n2)ccc1N1CCOCC1 | < 100 nM
CCN(CC)C1CCN(c2ccc(Nc3ncc(F)c(Nc4ccc5c(n4)NC(=O)C(C)(C)O5)n3)cn2)C1 (stereo not shown) | 500 to 1000 nM
C[C@H]1CN(c2ccc(Nc3ncc(F)c(Nc4ccc5c(n4)NC(=O)C(C)(C)O5)n3)cn2)[C@@H](C)CO1 (racemic) | 100 to 500 nM
CN(C)C[C@@H]1CN(c2ccc(Nc3ncc(F)c(Nc4ccc5c(n4)NC(=O)C(C)(C)O5)n3)cc2)CCO1 | 100 to 500 nM
CC1(C)Oc2ccc(Nc3nc(Nc4ccc(N5CCC(C#N)CC5)cc4)ncc3F)nc2NC1=O | 100 to 500 nM
C[C@@H]1CN(c2ccc(Nc3ncc(F)c(Nc4ccc5c(n4)NC(=O)C(C)(C)O5)n3)cc2)CCO1 | < 100 nM
[2H]C1([2H])OC([2H])([2H])C([2H])([2H])N(c2ccc(Nc3ncc(F)c(Nc4ccc5c(n4)NC(=O)CO5)n3)cc2)C1([2H])[2H] | < 100 nM
CC(C)[C@H]1COC(=O)N1c1ccc(Nc2ncc(F)c(Nc3ccc4c(n3)NC(=O)C(C)(C)O4)n2)cn1 | 1000 to 100000 nM
CC1(C)Oc2ccc(Nc3nc(Nc4ccc(N5CCC(O)CC5)nc4)ncc3F)nc2NC1=O | < 100 nM
O=C1COc2ccc(Nc3nc(Nc4ccc(C5CCOCC5)cc4)ncc3F)nc2N1 | < 100 nM
C[C@@H]1COCCN1c1ccc(Nc2ncc(F)c(Nc3ccc4c(n3)NC(=O)C(C)(C)O4)n2)cc1 | 100 to 500 nM
COc1cc(Nc2ncc(F)c(Nc3ccc4c(n3)NC(=O)C(C)(C)O4)n2)ccc1N1CCOCC1 | < 100 nM
CCOCC1CN(c2ccc(Nc3ncc(F)c(Nc4ccc5c(n4)NC(=O)CO5)n3)cc2)CCO1 (stereo in doubt) | 100 to 500 nM
COC1CN(c2ccc(Nc3ncc(F)c(Nc4ccc5c(n4)NC(=O)C(C)(C)O5)n3)cn2)C1 | > 100000 nM
CN(C[C@@H]1CCCO1)c1ccc(Nc2ncc(F)c(Nc3ccc4c(n3)NC(=O)CO4)n2)cn1 | 100 to 500 nM
CC1(C)Oc2ccc(Nc3nc(Nc4ccc(N5CCC6(CCOC6)CC5)nc4)ncc3F)nc2NC1=O | 100 to 500 nM
CC1(C)Oc2ccc(Nc3nc(Nc4ccc(N5CCNC(=O)C5)cc4)ncc3F)nc2NC1=O | 100 to 500 nM
C[C@H]1CN(c2ccc(Nc3ncc(F)c(Nc4ccc5c(n4)NC(=O)C(C)(C)O5)n3)cn2)CCO1 | 100 to 500 nM
O=C1COc2ccc(Nc3nc(Nc4ccc5c(c4)OCC4COCCN54)ncc3F)nc2N1 (stereo not shown) | 100 to 500 nM
CO[C@@H]1CCN(c2ccc(Nc3ncc(F)c(Nc4ccc5c(n4)NC(=O)C(C)(C)O5)n3)cn2)C1 | 100 to 500 nM
CCOC[C@@H]1CN(c2ccc(Nc3ncc(F)c(Nc4ccc5c(n4)NC(=O)C(C)(C)O5)n3)cn2)CCO1 | 100 to 500 nM
O=C1COc2ccc(Nc3nc(Nc4ccc(N5CCCCC5)cc4)ncc3F)nc2N1 | 100 to 500 nM
O=C1COc2ccc(Nc3nc(Nc4ccc(N5CC[C@H](O)C5)nc4)ncc3F)nc2N1 | 100 to 500 nM
CC1(C)Oc2ccc(Nc3nc(Nc4ccc(N5CCOC5=O)nc4)ncc3F)nc2NC1=O | 100 to 500 nM
CC1(C)Oc2ccc(Nc3nc(Nc4ccc(N5CCO[C@H](CCO)C5)cc4)ncc3F)nc2NC1=O (stereo in doubt) | 100 to 500 nM
C[C@H]1CN(c2ccc(Nc3ncc(F)c(Nc4ccc5c(n4)NC(=O)CO5)n3)cn2)[C@@H](C)CO1 (racemic) | 100 to 500 nM

* * *

Tested on: Human mast cells (CHMC)
protocol_description: LD Tryptase release assay in CHMC (mast cell activation induced by FcγR cross-linking)
Format: cell-based
measurement_context: Homo sapiens, Mast cell, anti-IgG stimulation, activity of tryptase released upon degranulation

smiles_structure | system_tested | IC50
C[C@@H]1CN(c2ccc(Nc3ncc(F)c(Nc4ccc5c(n4)NC(=O)C(C)(C)O5)n3)cn2)C[C@H](C)O1 | Human mast cells (CHMC) | 100 to 500 nM
CC1(C)Oc2ccc(Nc3nc(Nc4ccc(N5CCC(F)(F)CC5)cc4)ncc3F)nc2NC1=O | Human mast cells (CHMC) | 1000 to 100000 nM
CC1(C)Oc2ccc(Nc3nc(Nc4ccc(N5CCC(N6CCOCC6)CC5)nc4)ncc3F)nc2NC1=O | Human mast cells (CHMC) | 100 to 500 nM
CN1CCN(c2ccc(Nc3ncc(F)c(Nc4ccc5c(n4)NC(=O)CO5)n3)cn2)CC1 | Human mast cells (CHMC) | 1000 to 100000 nM

* * *

Tested on: Human mast cells (CHMC)
protocol_description: LD Tryptase release assay in CHMC (mast cell activation induced by FcγR cross-linking)
Format: cell-based
measurement_context: Homo sapiens, Mast cell, anti-IgG stimulation, activity of tryptase released upon degranulation
Entries annotated with measured IC50

compound | system_tested | IC50
CC1(C)Oc2ccc(Nc3nc(Nc4ccc(N5CC[C@@H](O)C5)nc4)ncc3F)nc2NC1=O [Compound 64] | Human mast cells (CHMC) | 100 to 500 nM
[2H]C1([2H])OC([2H])([2H])C([2H])([2H])N(c2ccc(Nc3ncc(F)c(Nc4ccc5c(n4)NC(=O)C(C)(C)O5)n3)cn2)C1([2H])[2H] [Compound 107] | Human mast cells (CHMC) | < 100 nM
Cc1cc(Nc2ncc(F)c(Nc3ccc4c(n3)NC(=O)C(C)(C)O4)n2)cnc1N1CCOC(C)(C)C1 [Compound 14] | Human mast cells (CHMC) | 500 to 1000 nM
C[C@@H]1CN(c2ccc(Nc3ncc(F)c(Nc4ccc5c(n4)NC(=O)CO5)n3)cn2)C[C@H](C)O1 [Compound 95] | Human mast cells (CHMC) | 100 to 500 nM
CC1(C)Oc2ccc(Nc3nc(Nc4ccc(N5CCOCC5)c(OC(F)F)c4)ncc3F)nc2NC1=O [Compound 25] | Human mast cells (CHMC) | 1000 to 100000 nM
C[C@@H]1CN(c2ccc(Nc3ncc(F)c(Nc4ccc5c(n4)NC(=O)CO5)n3)cc2)CCO1 [Compound 117] | Human mast cells (CHMC) | < 100 nM
CCOC[C@H]1CN(c2ccc(Nc3ncc(F)c(Nc4ccc5c(n4)NC(=O)C(C)(C)O5)n3)cn2)CCO1 [Compound 103] | Human mast cells (CHMC) | 100 to 500 nM

* * *

System: Human mast cells (CHMC)
protocol_description: LD Tryptase release assay in CHMC (mast cell activation induced by FcγR cross-linking)
Format: cell-based
measurement_context: Homo sapiens, Mast cell, anti-IgG stimulation, activity of tryptase released upon degranulation
Experimental: Compounds were assayed for inhibition of mast cell activation induced by FcγR cross-linking by measuring the activity of tryptase released upon degranulation as follows: Human mast cells were cultured and differentiated from […] progenitor cell as described in U.S. Patent Publication No. 2005-234049, incorporated herein by reference. […]
endpoint_label: IC50

compound | system_tested | endpoint_label | observed_measurement
CCOCC1COCCN1c1ccc(Nc2ncc(F)c(Nc3ccc4c(n3)NC(=O)C(C)(C)O4)n2)cn1 (stereo not shown) | Human mast cells (CHMC) | IC50 | 100 to 500 nM
Cc1cc(Nc2ncc(F)c(Nc3ccc4c(n3)NC(=O)C(C)(C)O4)n2)ccc1N1C[C@@H]2C[C@H]1CO2 | Human mast cells (CHMC) | IC50 | < 100 nM
CC1(C)Oc2ccc(Nc3nc(Nc4ccc(N5CCC(N)CC5)cc4)ncc3F)nc2NC1=O | Human mast cells (CHMC) | IC50 | 100 to 500 nM
CC1(C)CN(c2ccc(Nc3ncc(F)c(Nc4ccc5c(n4)NC(=O)CO5)n3)cc2)CCO1 | Human mast cells (CHMC) | IC50 | < 100 nM
CN(C)C[C@@H]1CN(c2ccc(Nc3ncc(F)c(Nc4ccc5c(n4)NC(=O)CO5)n3)cc2)CCO1 (racemic) | Human mast cells (CHMC) | IC50 | < 100 nM
C[C@@H]1CN(c2ccc(Nc3ncc(F)c(Nc4ccc5c(n4)NC(=O)C(C)(C)O5)n3)cc2)C[C@H](C)O1 | Human mast cells (CHMC) | IC50 | 100 to 500 nM
O=C1COc2ccc(Nc3nc(Nc4ccc(N5CCCOCC5)cc4)ncc3F)nc2N1 | Human mast cells (CHMC) | IC50 | 100 to 500 nM
